# Species on record: Rattus norvegicus
# test.protocol: Pressor activity in rat assessed as weight basis relative to mammalian [Ile5]angiotensin 2
# Format: functional
This listing pairs substances with measured Activity.
Express the result in % but write the number alone.

H-DRVYIHPFHL-OH = 58.6
H-DRVYVHPFHL-OH = 51.5
H-DRVYVHPF-OH [[Val5] - ANGIOTENSIN II] = 136

Enquiry: Query: Activity; subject: H-DRVYVHPFSL-OH
Return: 94.1
